This collection of values is drawn from patent US10670605B2.

Biological target: ACAT1 C126 (P24752) (Homo sapiens)
Sequence (P24752 34-427): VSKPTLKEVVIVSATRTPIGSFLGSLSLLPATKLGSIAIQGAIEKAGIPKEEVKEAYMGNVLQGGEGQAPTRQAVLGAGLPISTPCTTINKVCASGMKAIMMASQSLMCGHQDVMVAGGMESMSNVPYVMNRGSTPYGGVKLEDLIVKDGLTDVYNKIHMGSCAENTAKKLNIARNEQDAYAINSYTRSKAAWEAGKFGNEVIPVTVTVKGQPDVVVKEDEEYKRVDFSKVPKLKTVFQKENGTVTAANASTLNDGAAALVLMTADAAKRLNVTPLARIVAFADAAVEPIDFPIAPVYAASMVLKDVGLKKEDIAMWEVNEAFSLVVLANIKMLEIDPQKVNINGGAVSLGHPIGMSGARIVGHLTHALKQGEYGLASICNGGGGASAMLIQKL
Experiment: Competitive isoTOP-ABPP, cell lysates
Assay type: binding
Settings: 500 μM, invitro, ramos
Below: a set of entries, each annotated with reported isoTOP-ABPP ratio, P24752_C126.
Quantity kind: isoTOP-ABPP ratio, P24752_C126

- O=C(CCl)N1CCN(S(=O)(=O)c2ccccc2F)CC1: 1.5
- O=C(CCl)NC(=O)NC12CC3CC(CC(C3)C1)C2: 1.1
- O=C(CCl)NCCc1c[nH]c2ccccc12: 20.0
- C=CC(=O)N(c1ccccc1)c1ccc(Br)cc1: 1.3
